Taken from patent US11129830B2.

tested on: panel of nine cell lines of diverse origins and BRAF mutational status; assay: Cellular proliferation (SRB) assay, 5-day IC50, panel of nine cell lines; format: cell-based; conditions: 120 h, read-out: IC50 values (5 day)
pIC50: −log10 of the molar value.
OBSERVED PROPERTY: pIC50

Q: Please give the measured pIC50 for this molecule: "CCCS(=O)(=O)Nc1ccc(F)c(C(=O)c2c[nH]c3ncc(-c4ccc(Cl)cc4)cc23)c1F"
Ans: 6.26 to 6.70

Q: Please give the measured pIC50 for this molecule: "C=CCc1cccc(/C=N/NC(=O)CN2CCN(Cc3ccccc3)CC2)c1O"
Ans: 5.40 to 6.00
